# Tested on: COR-L23
# assay-explanation: relative viability (nuclei count vs DMSO), 5 days (fraction); higher = more cells survive
# stated-conditions: first compound 0.04 µM
Can you tell me relative viability for the items I'm about to list?
I only need the number, thanks.

Query: Report relative viability for Clc1ccc(Nc2nnc(Cc3ccncc3)c3ccccc23)cc1 [Vatalanib] + CC(C)C[C@H](NC(=O)[C@H](Cc1ccccc1)NC(=O)c1cnccn1)B(O)O [Bortezomib] (partner 0.002 µM) please.
Reply: 1.1

Query: // query relative viability value for entry COc1cc(N2CCC(C(N)=O)CC2)ccc1Nc1nc(N)c(Cl)c(Nc2ccccc2S(=O)(=O)C(C)C)n1 [HG-5-88-01] + CC(=O)Nc1cccc(-n2c(=O)n(C3CC3)c(=O)c3c(Nc4ccc(I)cc4F)n(C)c(=O)c(C)c32)c1 [Trametinib] (partner 0.02 µM)
Reply: 0.502

Query: If you can, please state the reported relative viability value of Clc1ccc(Nc2nnc(Cc3ccncc3)c3ccccc23)cc1 [Vatalanib] + N=C(N)NC(=N)NCCc1ccccc1 [Phenformin] (partner 250 µM) .
Reply: 0.442
